Reported aptazyme ON/OFF ratio is given for each of the following variants.
B1: Pistol ribozyme (parent)
chain: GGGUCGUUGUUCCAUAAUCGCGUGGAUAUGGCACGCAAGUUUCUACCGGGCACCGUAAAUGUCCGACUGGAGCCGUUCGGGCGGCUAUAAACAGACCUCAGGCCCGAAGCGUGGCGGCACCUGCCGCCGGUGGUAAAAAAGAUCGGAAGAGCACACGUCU

Variants of: B1
TEST_PROTOCOL: aptazyme ON/OFF ratio, guanine; higher = stronger switching; co-transcriptional cleavage with and without guanine
OBSERVABLE: aptazyme ON/OFF ratio

U8C U10G U11A C12A C13G	1.15
U7C U8G G9C U10A U11C C12A C13G	1.11
U7C U8C U10G U11A C12U C13G	1.1
U7A U8A G9A U10C C12G C13U	1.08
G9U U11G C12A C13U	1.36
U8G U11A C12U C13G	1.12
U7C U8A G9C U10A U11C C12G C13U	1.36
U7G U8A G9C U10C U11C C12G C13U	1.03
U7A U8C G9U U11C C13U	1.05
U7G U8A G9C U11C C12G C13G	1.03
U7G G9U U10G U11C C12A C13G	1.23
U7C U8G U10A C12A C13G	1.08
U8C G9A U10A U11G C12U	1.26
U7A U8A G9A U10G U11A C12U C13U	1.1
U10C U11C C12A	1.27
U7A U11G C13A	1.03

Source of measurements: the RNAGym collection of RNA variant scans (doi:10.1021/acssynbio.7b00057)
